Reported IC50 values for a set of molecules
# SYSTEM_NAME: UniProt:P49841
# Sequence (P49841 whole entry): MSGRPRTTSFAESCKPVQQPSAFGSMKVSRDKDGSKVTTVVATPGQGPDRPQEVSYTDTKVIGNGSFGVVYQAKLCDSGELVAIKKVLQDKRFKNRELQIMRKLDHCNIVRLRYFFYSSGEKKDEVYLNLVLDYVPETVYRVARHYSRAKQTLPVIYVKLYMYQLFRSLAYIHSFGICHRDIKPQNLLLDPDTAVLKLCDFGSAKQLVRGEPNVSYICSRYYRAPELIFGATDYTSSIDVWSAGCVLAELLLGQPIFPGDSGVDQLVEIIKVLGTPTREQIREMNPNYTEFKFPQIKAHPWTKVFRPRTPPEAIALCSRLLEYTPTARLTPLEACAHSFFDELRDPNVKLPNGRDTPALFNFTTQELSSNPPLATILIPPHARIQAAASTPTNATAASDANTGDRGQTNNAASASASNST
# MEASUREMENT_PROTOCOL: GSK3β in vitro kinase assay
# APPLIED_CONDITIONS: recombinant human GSK3β, 100 μM ATP
METRIC: IC50

[[record]]
compound = "Cc1c(-c2ccnc(Nc3cccc(CNS(=O)(=O)C(F)(F)F)c3)n2)sc(=O)n1C"
metric = "IC50"
result = "23.3 nM"

[[record]]
compound = "COCCNS(=O)(=O)c1ccc(Nc2nccc(-c3sc(=O)n(C)c3C)n2)cc1"
metric = "IC50"
result = "9 nM"

[[record]]
compound = "CC(=O)N1CCN(c2cccc(Nc3nccc(-c4sc(=O)n(C)c4C)n3)c2)CC1"
metric = "IC50"
result = "380 nM"

[[record]]
compound = "CCn1c(C)c(-c2ccnc(Nc3cccc(S(=O)(=O)O)c3)n2)sc1=O"
metric = "IC50"
result = "158 nM"

[[record]]
compound = "Cc1c(-c2ccnc(Nc3cccc(S(=O)(=O)NC(C)C)c3)n2)sc(=O)n1C"
metric = "IC50"
result = "75 nM"

[[record]]
compound = "Cc1cc(Nc2nccc(-c3sc(=O)n(C)c3C)n2)cnc1Cl"
metric = "IC50"
result = "3.2 nM"

[[record]]
compound = "Cc1c(-c2ccnc(Nc3cccc(CNS(C)(=O)=O)c3)n2)sc(=O)n1C"
metric = "IC50"
result = "82 nM"

[[record]]
compound = "Cc1c(-c2ccnc(Nc3ccc(Cl)c(C(F)(F)F)c3)n2)sc(=O)n1C"
metric = "IC50"
result = "15 nM"

[[record]]
compound = "Cc1c(-c2ccnc(Nc3cccc(S(=O)(=O)N4CCOCC4)c3)n2)sc(=O)n1C"
metric = "IC50"
result = "35.6 nM"

[[record]]
compound = "Cc1c(-c2ccnc(Nc3ccc(N4CCNCC4)c(Cl)c3)n2)sc(=O)n1C"
metric = "IC50"
result = "17.8 nM"

[[record]]
compound = "CCn1c(C)c(-c2ccnc(Nc3ccc(F)cc3)n2)sc1=O"
metric = "IC50"
result = "15.2 nM"

[[record]]
compound = "Cc1c(-c2ccnc(Nc3cccc(CNC(=O)c4ccccc4)c3)n2)sc(=O)n1C"
metric = "IC50"
result = "17.8 nM"

[[record]]
compound = "COc1ccc(C)c(Nc2nccc(-c3sc(=O)n(C)c3C)n2)c1"
metric = "IC50"
result = "3500 nM"

[[record]]
compound = "Cc1c(-c2ccnc(Nc3cccc(S(=O)(=O)NCc4ccccc4)c3)n2)sc(=O)n1C"
metric = "IC50"
result = "70.9 nM"

[[record]]
compound = "Cc1c(-c2ccnc(Nc3cc(N)cc(C(F)(F)F)c3)n2)sc(=O)n1C"
metric = "IC50"
result = "5.3 nM"

[[record]]
compound = "CC(=O)Nc1cc(Nc2nccc(-c3sc(=O)n(C)c3C)n2)cc(C(F)(F)F)c1"
metric = "IC50"
result = "3 nM"

[[record]]
compound = "CNc1cc(Nc2nccc(-c3sc(=O)n(C)c3C)n2)cc(C(F)(F)F)c1"
metric = "IC50"
result = "18.9 nM"

[[record]]
compound = "COCCNS(=O)(=O)c1cccc(Nc2nccc(-c3sc(=O)n(C)c3C)n2)c1"
metric = "IC50"
result = "23 nM"

[[record]]
compound = "Cc1c(-c2ccnc(Nc3ccc(S(=O)(=O)NCc4ccccc4)cc3)n2)sc(=O)n1C"
metric = "IC50"
result = "66.5 nM"

